Where do the numbers come from? From patent US20240360157A1.

molecular target: human JAK2 catalytic kinase (JH1) domain (Homo sapiens (Human)); assay: ADP-Glo Kinase Assay, recombinant JAK2 catalytic kinase (JH1) domain; format: biochemical; conditions: recombinant JH1 domain 0.2 nM, 15 μM ATP, JAK3-974 peptide, mean, read-out: JAK2 biochem IC50 (nM) Mean
Sequence (O60674 849-1124): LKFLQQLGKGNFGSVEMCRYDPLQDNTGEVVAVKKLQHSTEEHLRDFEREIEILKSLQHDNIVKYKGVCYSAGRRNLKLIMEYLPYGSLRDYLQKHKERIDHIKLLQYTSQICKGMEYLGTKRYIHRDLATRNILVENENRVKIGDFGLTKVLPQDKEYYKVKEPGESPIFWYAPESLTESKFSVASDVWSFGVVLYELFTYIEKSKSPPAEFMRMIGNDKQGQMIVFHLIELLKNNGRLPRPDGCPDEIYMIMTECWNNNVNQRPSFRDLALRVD
Strictly below 1000 nM in IC50: 1. Otherwise: -1.

These recorded examples may help you get a feel for the data.
O=C([C@H]1C[C@H]1F)N1C2CCC1CN(c1ncnn3cc(-c4cnn(C(F)F)c4)cc13)C2 (racemic) [Example 46]	-1
COc1cc(-c2cc3c(N4CC5CCC(C4)N5S(=O)(=O)C4CC4)ccnn3c2)ccn1	1
Cc1ccc(-c2cc3c(N4CC5CCC(C4)N5C(=O)[C@@H]4C[C@H]4F)ncnn3c2)cn1	-1
O=C([C@@H]1C[C@H]1F)N1C2CCC1CN(c1ncnc3[nH]c(-c4cnn(C(F)F)c4)cc13)C2	1
O=C([C@@H]1C[C@H]1F)N1C2CCC1CN(c1ccnn3cc(-c4ccnnc4)cc13)C2	1
Cc1cc(-c2cc3c(N4CC5CCC(C4)N5C(=O)[C@@H]4C[C@H]4F)ncnc3[nH]2)ccn1	1

Could you now consider this next molecule?
Prompt: hey, is IC50 for `O=C([C@@H]1CC1(F)F)N1C2CCC1CN(c1ccnn3cc(C4CC4)cc13)C2` lower than 1000 nM or not?
Completion: -1
